TESTED TARGET: ZFP SBS#976 (synthetic)
Sequence (chain, as listed by the source): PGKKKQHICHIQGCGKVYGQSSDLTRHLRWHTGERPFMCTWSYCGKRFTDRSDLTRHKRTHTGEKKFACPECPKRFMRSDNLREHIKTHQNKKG
ASSAY EXPLANATION: EMSA
DETAILS: tags: MBP fusion
QUANTITY: Kd (nM)
Record the value in nM, omitting the unit from your answer.

Reported Kd of CAGGCCGCT (dsDNA) DNA 1: CAGGCCGCT DNA 2: AGCGGCCTG : 4.12
